# System: rhinovirus B14
# procedure-details: In vitro minimum inhibitory concentration for the inhibition of human rhinovirus-14 replication.
# Format: functional
# condition-details: Rhinovirus B
endpoint-label: MIC (µM)

# count of solved cases: 7
Ask: Report MIC from rhinovirus B14 testing of Cc1cc(CCCCOc2ccc(C3=NCCO3)cc2Cl)on1
Result: 9.2

Ask: Report MIC from rhinovirus B14 testing of Cc1cc(CCCCCCCOc2ccc(C3=NC(CO)CO3)cc2)on1 (centres undefined)
Result: 0.16

Ask: Report MIC from rhinovirus B14 testing of Cc1cc(CCCCCCOc2ccc(C3=NCCO3)cc2)on1
Result: 2.9

Ask: Report MIC from rhinovirus B14 testing of Cc1cc(CCCCCOc2ccc(C3=NCCO3)cc2Cl)on1
Result: 2.41

Ask: Report MIC from rhinovirus B14 testing of Cc1cc(CCCCCCCOc2ccc(C3=NC(C)(C)CO3)cc2)on1
Result: 0.16

Ask: Report MIC from rhinovirus B14 testing of Cc1cc(CCCCCOc2ccc(C3=NCCO3)cc2)on1
Result: 0.51

Ask: Report MIC from rhinovirus B14 testing of OCCOCOCc1cc(CCCCCCCOc2c(Cl)cc(C3=NCCO3)cc2Cl)on1
Result: 0.06

a = CCc1cc(CCCCCOc2ccc(C3=NCCO3)cc2)on1
b = CCCc1cc(CCCCCOc2ccc(C3=NCCO3)cc2)on1
Ask: Between these two entries, a and b , state which has the higher MIC. Returns: label corresponding to the selected item.
Result: a
(a: 0.43 µM, b: 0.16 µM)

----------
# Test system: rhinovirus B14
# procedure-details: In vitro minimum inhibitory concentration for the inhibition of human rhinovirus-14 replication.
# Format: functional
# condition-details: Rhinovirus B
endpoint-label: MIC (µM)

Ask: Return the recorded MIC value; entry: Cc1cc(CCCCCCCOc2ccc(C3=NCCO3)cc2)on1 [DISOXARIL]
Result: 0.41

Ask: Return the recorded MIC value; entry: Cc1cc(CCCCCCOc2ccc(C3=NCCO3)cc2Cl)on1
Result: 3.86

Ask: Return the recorded MIC value; entry: Cc1cc(CCCCCOc2ccc(-c3nc(C)c(C)s3)cc2)on1
Result: 0.14

Ask: Return the recorded MIC value; entry: CCCCc1cc(CCCCCOc2ccc(C3=NCCO3)cc2)on1
Result: 0.56

1 = Cc1cc(CCCCCCCCOc2ccc(C3=NCCO3)cc2)on1
2 = Cc1cc(CCCCCCCCOc2ccc(C3=NCCO3)cc2Cl)on1
3 = Cc1cc(CCCCCCCOc2ccc(C3=NCCO3)cc2Cl)on1
4 = CC[C@H]1COC(c2ccc(OCCCCCCCc3cc(C)no3)cc2)=N1
Ask: Number of compounds to sort: 4. Sort criterion: MIC, ascending. Please reply with the labels ordered as requested. Many thanks.
Result: 4, 3, 1, 2

P = Cc1cc(CCCCCCCOc2ccc(C3=NC(C)CO3)cc2)on1 (stereo unspecified)
Q = Cc1cc(CCCCCOc2ccc(C3=NC(C)CO3)cc2)on1 (stereo unspecified)
Ask: Hi there, can you help? I need to know whether P or Q has lower measured MIC. Returns: label corresponding to the selected item.
Result: P
(P: 0.05 µM, Q: 0.7 µM)

Ref: ChEMBL document CHEMBL1125158
